Read-out: sulfotransferase 2A1 (SULT2A1), SULT2A1 (gene 6822)
test-description: LTEA_HepaRG_SULT2A1: Life Technologies and Expression Analysis (LTEA) Assay for sulfotransferase 2A1 (SULT2A1) using HepaRG (AID 2283531)
experimental-parameters: mRNA level, 48 h; actives raise or lower the signal
Method: LTEA_HepaRG is a cell based, multiplexed-readout assay that uses HepaRG, a human liver cell line, with measurements taken at 48 hours after chemical dosing on a 96-well plate.LTEA_HepaRG_SULT2A1 is one of 102 assay component(s) measured in the LTEA HepaRG cell culture assay. It is a marker of NR mediated transport.Data from the assay component LTEA_HepaRG_SULT2A1 was analyzed into 1 endpoint. […]
The source made the active and inactive calls. Rule for the calls: active = hit-call score of the fitted dose curve at least 0.9, where 1 is the maximum; inactive = score below 0.9.
Use one of these outcomes when replying: class 1 for active, class 0 for inactive

Lab log entry: "CNCc1ccc(NC(=O)c2c[nH]c3c2C(=O)CCC3)cc1" — outcome as called in the assay?
class 0

Lab log entry: "O=P(OC(CCl)CCl)(OC(CCl)CCl)OC(CCl)CCl" — outcome as called in the assay?
class 1

Lab log entry: "CCOc1cccc(-n2cc(C(=O)N3CCN(c4cc(C(=O)O)c5ccccc5c4)CC3)nc2-c2ccc(C)cc2)c1" — outcome as called in the assay?
class 1

New cases:
Lab log entry: O=C1OC(=O)C2C3C=CC(C3)C12 (configuration not stated) — outcome as called in the assay?
class 0

Lab log entry: "CC(C)=CCCC(C)=CC=O" — outcome as called in the assay?
class 0

Lab log entry: CCCCC(CC)COC(=O)CCCCCCCCC(=O)OCC(CC)CCCC (configuration not stated) — outcome as called in the assay?
class 0

Lab log entry: "Clc1nc(Cl)c(Cl)c(Cl)c1Cl" — outcome as called in the assay?
class 0

Lab log entry: "CC(=O)c1ccc2c(c1)[C@H](NC(=O)c1ccc(F)cc1)[C@@H](O)C(C)(C)O2" — outcome as called in the assay?
class 0

----------
Read-out: Vascular cell adhesion molecule 1 (VCAM1), VCAM1 (gene 7412)
test-description: BSK_CASM3C_VCAM1: BioMAP Diversity Plus: CASM3C Assay for Vascular cell adhesion molecule 1 (VCAM1) Biomarker Activity (AID 2283055);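 note: VCAM-1 protein level quantified by ELISA on the cells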
experimental-parameters: primary human coronary artery smooth muscle cells; actives raise or lower the signal
The source made the active and inactive calls. The calls were made as follows: active = hit-call score of the fitted dose curve at least 0.9, where 1 is the maximum; inactive = score below 0.9.
Use one of these outcomes when replying: active, inactive

Lab log entry: CCCCC(CC)COC(=O)c1ccc(C(=O)OCC(CC)CCCC)cc1 (stereo not drawn) — outcome as called in the assay?
inactive

Lab log entry: "CCN(C(=O)c1cc(C)cc(OC[C@H](C)Nc2ccncc2)c1)C(C)C" — outcome as called in the assay?
inactive

Lab log entry: "CC[C@H](C)C(=O)O[C@H]1C[C@@H](C)C=C2C=C[C@H](C)[C@H](CC[C@@H]3C[C@@H](O)CC(=O)O3)[C@H]21" — outcome as called in the assay?
inactive

Lab log entry: "CC(C)CCCCCCOC(=O)c1ccc(C(=O)OCCCCCCC(C)C)c(C(=O)OCCCCCCC(C)C)c1" — outcome as called in the assay?
inactive

New cases:
Lab log entry: COc1ccc(-n2nc(C(F)F)cc2-c2ccc(S(C)=O)cc2)cc1 (stereo not drawn) — outcome as called in the assay?
inactive

Lab log entry: "O=C(CCCCCCCCc1cccnc1)N1CCC(C=C(c2ccccc2)c2ccccc2)CC1" — outcome as called in the assay?
active

Lab log entry: "O=C(NS(=O)(=O)/C=C/c1ccccc1)c1ccc(F)cc1Cl" — outcome as called in the assay?
inactive

Lab log entry: "Oc1ccc2c(c1)-c1ccccc1C2" — outcome as called in the assay?
inactive

Lab log entry: "Nc1cccc(N)c1" — outcome as called in the assay?
inactive

Lab log entry: "CNCc1ccc(NC(=O)c2c[nH]c3c2C(=O)CCC3)cc1" — outcome as called in the assay?
inactive

Lab log entry: "C=CCCCCCCCCC(=O)O" — outcome as called in the assay?
inactive

Lab log entry: "CN(C)c1ccc(Cc2ccc(N(C)C)cc2)cc1" — outcome as called in the assay?
inactive

Lab log entry: "C[C@](N)(Cc1ccc(O)c(O)c1)C(=O)O" — outcome as called in the assay?
inactive

----------
Read-out: Monokine induced gamma interferon (MIG), CXCL9 (gene 4283)
test-description: BSK_hDFCGF_MIG: BioMAP Diversity Plus: hDFCGF Assay for Monokine induced gamma interferon (MIG) Biomarker Activity (AID 2283063)
experimental-parameters: primary human foreskin fibroblasts; actives raise or lower the signal
The source made the active and inactive calls. Rule for the calls: active = hit-call score of the fitted dose curve at least 0.9, where 1 is the maximum; inactive = score below 0.9.
Use one of these outcomes when replying: TRUE (active), FALSE (inactive)

Lab log entry: "CC(=O)OC[C@H]1O[C@@](COC(C)=O)(O[C@H]2O[C@H](COC(C)=O)[C@@H](OC(C)=O)[C@H](OC(C)=O)[C@H]2OC(C)=O)[C@@H](OC(C)=O)[C@@H]1OC(C)=O" — outcome as called in the assay?
FALSE

Lab log entry: "C[C@](N)(Cc1ccc(O)c(O)c1)C(=O)O" — outcome as called in the assay?
TRUE

Lab log entry: "O=C(OC[C@H]1O[C@@H](OC(=O)c2cc(O)c(O)c(OC(=O)c3cc(O)c(O)c(O)c3)c2)[C@H](OC(=O)c2cc(O)c(O)c(OC(=O)c3cc(O)c(O)c(O)c3)c2)[C@@H](OC(=O)c2cc(O)c(O)c(OC(=O)c3cc(O)c(O)c(O)c3)c2)[C@@H]1OC(=O)c1cc(O)c(O)c(OC(=O)c2cc(O)c(O)c(O)c2)c1)c1cc(O)c(O)c(OC(=O)c2cc(O)c(O)c(O)c2)c1" — outcome as called in the assay?
TRUE

New cases:
Lab log entry: COc1ccc(-n2nc(C(F)F)cc2-c2ccc(S(C)=O)cc2)cc1 (configuration not stated) — outcome as called in the assay?
FALSE

Lab log entry: "C=CCCCCCCCCC(=O)O" — outcome as called in the assay?
FALSE

Lab log entry: O=c1[nH]c2ccc(S(=O)CCN3CCC(Cc4ccc(F)cc4)CC3)cc2o1 (configuration not stated) — outcome as called in the assay?
FALSE

Lab log entry: "CCOC(=O)CC(CC(=O)OCC)(OC(C)=O)C(=O)OCC" — outcome as called in the assay?
FALSE

----------
tested-target: human Vascular Endothelial Growth Factor Receptor 1 (VEGFR1), FLT1 (gene 2321)
test-description: NVS_ENZ_hVEGFR1: NovaScreen (NVS) Enzymatic Assay for human Vascular Endothelial Growth Factor Receptor 1 (VEGFR1) (AID 2283226)
Records with an inconclusive call do not appear. Active and inactive are the calls of the source. How the source made its calls: active means hit-call score of the fitted dose curve at least 0.9, where 1 is the maximum; inconclusive means response in the unintended direction; inactive means score below 0.9.
Use one of these outcomes when replying: True (active), False (inactive)

Before answering, review these 3 worked examples.
Lab log entry: "CN(C)c1ccc(N=NS(=O)(=O)O)cc1" — outcome as called in the assay?
False

Lab log entry: "CC[C@H](C)C(=O)O[C@H]1C[C@@H](C)C=C2C=C[C@H](C)[C@H](CC[C@@H]3C[C@@H](O)CC(=O)O3)[C@H]21" — outcome as called in the assay?
False

Lab log entry: "Cn1c(=O)cc(Oc2ccc(F)cc2F)c2cnc(NCC(C)(C)O)nc21" — outcome as called in the assay?
True

Note: attention shifts to another entry.
Lab log entry: "O=C(O)c1cc(N=Nc2ccc(S(=O)(=O)Nc3ccccn3)cc2)ccc1O" — outcome as called in the assay?
False

----------
Read-out: Interferon-gamma inducible Protein 10 (IP10), CXCL10 (gene 3627)
test-description: BSK_BE3C_IP10: BioMAP Diversity Plus: BE3C Assay for Interferon-gamma inducible Protein 10 (IP10) Biomarker Activity (AID 2283034)
experimental-parameters: primary human bronchial epithelial cells; actives raise or lower the signal
Calls of active or inactive are those of the source. The calls were made as follows: active = hit-call score of the fitted dose curve at least 0.9, where 1 is the maximum; inactive = score below 0.9.
Use one of these outcomes when replying: YES for active, NO for inactive

Before answering, review these 5 worked examples.
Lab log entry: "COC(=O)c1c(Cl)c(Cl)c(C(=O)OC)c(Cl)c1Cl" — outcome as called in the assay?
NO

Lab log entry: "Cn1c(=O)c2c(ncn2C)n(C)c1=O" — outcome as called in the assay?
NO

Lab log entry: "O=C(O)CCN(C1(C(=O)NO)CCCC1)S(=O)(=O)c1ccc(Oc2ccc(F)cc2)cc1" — outcome as called in the assay?
NO

Lab log entry: "CC(C)CCO" — outcome as called in the assay?
NO

Lab log entry: "Clc1nc(Cl)c(Cl)c(Cl)c1Cl" — outcome as called in the assay?
NO

Note: attention shifts to another entry.
Lab log entry: O=c1[nH]c2ccc(S(=O)CCN3CCC(Cc4ccc(F)cc4)CC3)cc2o1 (stereo not drawn) — outcome as called in the assay?
NO

----------
Read-out: sulfotransferase 2A1 (SULT2A1), SULT2A1 (gene 6822)
test-description: LTEA_HepaRG_SULT2A1: Life Technologies and Expression Analysis (LTEA) Assay for sulfotransferase 2A1 (SULT2A1) using HepaRG (AID 2283531)
experimental-parameters: mRNA level, 48 h; actives raise or lower the signal
The source made the active and inactive calls. The calls were made as follows: active = hit-call score of the fitted dose curve at least 0.9, where 1 is the maximum; inactive = score below 0.9.
Use one of these outcomes when replying: t for active, f for inactive

Before answering, review these 5 worked examples.
Lab log entry: "O=C(O)c1cccc(N(Cc2cccnc2)c2ccc(OC(F)F)c(OC(F)F)c2)c1" — outcome as called in the assay?
f

Lab log entry: "COc1ccc2sc(C(=O)Nc3nnn[nH]3)c(OC(C)C)c2c1" — outcome as called in the assay?
t

Lab log entry: "CCCCCCCCCCCCCCCO" — outcome as called in the assay?
f

Lab log entry: O=c1n(CC2CO2)c(=O)n(CC2CO2)c(=O)n1CC1CO1 (centres undefined) — outcome as called in the assay?
f

Lab log entry: "CC(C)=CCC/C(C)=C/CO" — outcome as called in the assay?
f

New cases:
Lab log entry: "On1ccccc1=S" — outcome as called in the assay?
f

Lab log entry: "Cn1c(=O)c2c(ncn2C)n(C)c1=O" — outcome as called in the assay?
f

Lab log entry: "C=CC(=C)CCC=C(C)C" — outcome as called in the assay?
f

Lab log entry: "Nc1ccc(Nc2ccccc2)cc1" — outcome as called in the assay?
f

Source listed as PubChem BioAssay (EPA / NIEHS).
